Substrate: CCCCCCCCCC(=O)Oc1ccc([N+](=O)[O-])cc1
experimental.details: pNP ester hydrolysis, Lineweaver-Burk
Type: biochemical, Bacillus sp. L2
assay.context: 70 °C (optimum temperature), 0.6-5.0 mM substrate
Measured Km by item
measurement.label: Km (µM)

# protein, measurement.label, val
measured = [
    ("wt-L2 lipase (Bacillus sp. L2; A36P) (protein, recombinant from pET32(B)+ in E. coli BL21(DE3), Ni Sepharose purified) ASLRANDPPIVLLHGFTGWGREEMFGFKYWGGVRGDIEQWLNDNGYRTYTLAVGPLSSNWDRACEAYAQLVGGTVDYGAAHAAKHGHARFGRTYPGLLPELKRGGRIHIIAHSQGGQTARMLVSLLENGSQEEREYAKAHNVSLSPLFEGGHHFVLSVTTIATPHDGTTLVNMVDFTDRFFDLQKAVLEAAAVASNVPYTSQVYDFKLDQWGLRRQPGESFDHYFERLKRSPVWTSTDTARYDLSVSGAEKLNQWVQASPNTYYLSFSTERTYRGALTGNHYPELGMNAFSAVVCAPFLGSYRNPTLGIDDRWLENDGIVNTVSMNGPKRGSSDRIVPYDGTLKKGVWNDMGTYNVDHLEIIGVDPNPSFDIRAFYLRLAEQLASLLP", "Km", 1340),
    ("wt-L2 lipase (Bacillus sp. L2; A36V) (protein, recombinant from pET32(B)+ in E. coli BL21(DE3), Ni Sepharose purified) ASLRANDVPIVLLHGFTGWGREEMFGFKYWGGVRGDIEQWLNDNGYRTYTLAVGPLSSNWDRACEAYAQLVGGTVDYGAAHAAKHGHARFGRTYPGLLPELKRGGRIHIIAHSQGGQTARMLVSLLENGSQEEREYAKAHNVSLSPLFEGGHHFVLSVTTIATPHDGTTLVNMVDFTDRFFDLQKAVLEAAAVASNVPYTSQVYDFKLDQWGLRRQPGESFDHYFERLKRSPVWTSTDTARYDLSVSGAEKLNQWVQASPNTYYLSFSTERTYRGALTGNHYPELGMNAFSAVVCAPFLGSYRNPTLGIDDRWLENDGIVNTVSMNGPKRGSSDRIVPYDGTLKKGVWNDMGTYNVDHLEIIGVDPNPSFDIRAFYLRLAEQLASLLP", "Km", 520),
    ("wt-L2 lipase (Bacillus sp. L2; A36E) (protein, recombinant from pET32(B)+ in E. coli BL21(DE3), Ni Sepharose purified) ASLRANDEPIVLLHGFTGWGREEMFGFKYWGGVRGDIEQWLNDNGYRTYTLAVGPLSSNWDRACEAYAQLVGGTVDYGAAHAAKHGHARFGRTYPGLLPELKRGGRIHIIAHSQGGQTARMLVSLLENGSQEEREYAKAHNVSLSPLFEGGHHFVLSVTTIATPHDGTTLVNMVDFTDRFFDLQKAVLEAAAVASNVPYTSQVYDFKLDQWGLRRQPGESFDHYFERLKRSPVWTSTDTARYDLSVSGAEKLNQWVQASPNTYYLSFSTERTYRGALTGNHYPELGMNAFSAVVCAPFLGSYRNPTLGIDDRWLENDGIVNTVSMNGPKRGSSDRIVPYDGTLKKGVWNDMGTYNVDHLEIIGVDPNPSFDIRAFYLRLAEQLASLLP", "Km", 4380),
    ("wt-L2 lipase (Bacillus sp. L2) (protein, recombinant from pET32(B)+ in E. coli BL21(DE3), Ni Sepharose purified) ASLRANDAPIVLLHGFTGWGREEMFGFKYWGGVRGDIEQWLNDNGYRTYTLAVGPLSSNWDRACEAYAQLVGGTVDYGAAHAAKHGHARFGRTYPGLLPELKRGGRIHIIAHSQGGQTARMLVSLLENGSQEEREYAKAHNVSLSPLFEGGHHFVLSVTTIATPHDGTTLVNMVDFTDRFFDLQKAVLEAAAVASNVPYTSQVYDFKLDQWGLRRQPGESFDHYFERLKRSPVWTSTDTARYDLSVSGAEKLNQWVQASPNTYYLSFSTERTYRGALTGNHYPELGMNAFSAVVCAPFLGSYRNPTLGIDDRWLENDGIVNTVSMNGPKRGSSDRIVPYDGTLKKGVWNDMGTYNVDHLEIIGVDPNPSFDIRAFYLRLAEQLASLLP", "Km", 1080),
]
